Hey, just so you know, these numbers are from patent US20250034269A1.

Consider the following binders and their measured Kd readings.
# target-system: T1, monomeric cynomolgus LTBR ECD (S28-M227) Fc fusion avi biotinylated (P1AE4411) (cynomolgus, UniProt P0DOX5 223-449 = IgG part, biotinylated avi tag)
# T1 construct: also called cyno LTBR
# test-summary: SPR, IgG captured;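 further: rate constants and KD obtained by fitting double-referenced sensorgrams to a 1:1 Langmuir binding model, with dissociation followed for 600 s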
Number only, in nM; omit the unit.

P1AE9452 (antibody, human IgG1, kappa, L234A L235A, V domains shown, human IgG1 PG LALA; from transgenic rabbit immunization; also called LTBR (9452)) VH: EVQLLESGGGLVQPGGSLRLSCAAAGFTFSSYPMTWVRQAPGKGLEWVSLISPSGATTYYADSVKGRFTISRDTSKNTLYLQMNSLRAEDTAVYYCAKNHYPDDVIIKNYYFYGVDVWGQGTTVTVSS VL: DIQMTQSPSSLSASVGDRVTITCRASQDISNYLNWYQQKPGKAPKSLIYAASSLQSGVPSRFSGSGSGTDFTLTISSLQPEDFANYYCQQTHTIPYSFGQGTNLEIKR = 0.4

// Kd lookup, binder = P1AE9457 (antibody, human IgG1, kappa, L234A L235A, V domains shown, human IgG1 PG LALA; from transgenic rabbit immunization; also called LTBR (9457)) VH: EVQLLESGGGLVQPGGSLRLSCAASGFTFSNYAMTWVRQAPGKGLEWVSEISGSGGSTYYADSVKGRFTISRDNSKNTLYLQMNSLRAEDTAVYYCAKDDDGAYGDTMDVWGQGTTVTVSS VL: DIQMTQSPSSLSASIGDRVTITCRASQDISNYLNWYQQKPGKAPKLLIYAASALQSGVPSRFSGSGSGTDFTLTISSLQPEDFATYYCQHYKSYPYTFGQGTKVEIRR , result: 10

// Kd lookup, binder = P1AF0079 (antibody, human IgG1, kappa, L234A L235A, V domains shown, human IgG1 PG LALA; from transgenic rabbit immunization; also called LTBR (0079)) VH: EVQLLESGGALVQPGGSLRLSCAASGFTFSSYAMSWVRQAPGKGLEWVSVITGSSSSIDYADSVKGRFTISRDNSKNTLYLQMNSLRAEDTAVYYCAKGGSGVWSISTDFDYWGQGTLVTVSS VL: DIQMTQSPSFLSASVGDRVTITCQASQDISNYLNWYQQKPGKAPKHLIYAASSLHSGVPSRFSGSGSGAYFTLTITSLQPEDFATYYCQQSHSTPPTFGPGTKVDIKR , result: 37

// Kd lookup, binder = P1AF0080 (antibody, human IgG1, kappa, L234A L235A, V domains shown, human IgG1 PG LALA; from transgenic rabbit immunization; also called LTBR (0080)) VH: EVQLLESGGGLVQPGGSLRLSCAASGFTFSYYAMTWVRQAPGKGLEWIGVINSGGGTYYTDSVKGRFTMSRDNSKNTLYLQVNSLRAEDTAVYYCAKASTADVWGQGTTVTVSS VL: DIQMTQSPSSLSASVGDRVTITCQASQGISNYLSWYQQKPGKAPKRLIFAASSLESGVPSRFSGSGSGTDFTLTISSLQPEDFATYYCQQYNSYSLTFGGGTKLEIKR , result: 3.5

// Kd lookup, binder = P1AF0064 (antibody, human IgG1, kappa, L234A L235A, V domains shown, human IgG1 PG LALA constant regions; V domains from rat immunization; also called LTBR (0064)) VH: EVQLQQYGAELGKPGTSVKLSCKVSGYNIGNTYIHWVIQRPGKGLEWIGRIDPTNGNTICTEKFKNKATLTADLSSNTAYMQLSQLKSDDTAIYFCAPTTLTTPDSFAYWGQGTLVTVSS VL: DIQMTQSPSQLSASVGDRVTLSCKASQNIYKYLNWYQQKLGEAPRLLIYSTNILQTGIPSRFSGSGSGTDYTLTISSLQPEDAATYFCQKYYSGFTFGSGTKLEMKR , result: 0.04

// Kd lookup, binder = P1AE9459 (antibody, human IgG1, kappa, L234A L235A, V domains shown, human IgG1 PG LALA; from transgenic rabbit immunization) VH: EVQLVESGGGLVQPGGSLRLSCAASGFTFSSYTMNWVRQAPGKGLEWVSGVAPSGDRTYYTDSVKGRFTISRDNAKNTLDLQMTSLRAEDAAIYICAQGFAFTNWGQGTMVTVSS VL: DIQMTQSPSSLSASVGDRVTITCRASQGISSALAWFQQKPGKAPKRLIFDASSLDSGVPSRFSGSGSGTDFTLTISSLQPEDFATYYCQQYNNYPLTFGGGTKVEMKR , result: 0.3
